# target desc: KRas^G12V (Homo sapiens, UniProt P01116, G12V)
# Construct: Biotinylated KRas (corresponding to amino acids 1-169, produced at Accelegan Inc.); biotin (biotinylated); purchased Accelegan Inc
# Sequence (P01116 1-169 isoform P01116-2 G12V): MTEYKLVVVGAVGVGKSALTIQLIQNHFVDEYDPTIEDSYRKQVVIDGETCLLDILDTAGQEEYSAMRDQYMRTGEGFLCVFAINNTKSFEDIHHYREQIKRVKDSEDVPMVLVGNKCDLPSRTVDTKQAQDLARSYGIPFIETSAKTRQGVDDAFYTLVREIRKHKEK
# method notes: KRas binding assay (TR-FRET tracer displacement), KRas G12V
metric: IC50 (nM)

Solved cases below.
compound	metric	unit tag	meas value
CCc1c(F)ccc2cc(O)cc(-c3ncc4c(/C=C/c5ccnn5C)nc(OC[C@@]56CCCN5C[C@H](F)C6)nc4c3F)c12	IC50	nM	152
Oc1cc(Cl)c(C2CC2)c(-c2ncc3c(N4C[C@H]5C[C@@H](C4)[C@H](O)C5)nc(OCC45CCCN4CCC5)nc3c2F)c1	IC50	nM	3
CCc1c(F)ccc2cc(O)cc(-c3ncc4c(N5CCOC[C@@]6(CCO6)C5)nc(OC[C@@]56CCCN5C[C@H](F)C6)nc4c3F)c12	IC50	nM	6
CCc1c(F)ccc2cc(O)cc(-c3nc4c5c(nc(OC[C@@]67CCCN6C[C@H](F)C7)nc5c3F)NCCO4)c12	IC50	nM	9
Cc1c(O)cc(-c2ncc3c(N4C[C@@H]5C[C@H](C4)[C@H](O)C5)nc(OC[C@@]45CCCN4C[C@H](F)C5)nc3c2F)c2ccccc12	IC50	nM	3740

a = CCc1c(F)ccc2cc(O)cc(-c3ncc4c(N5CCC6CNC(=O)NC6C5)nc(OC[C@@]56CCCN5C[C@H](F)C6)nc4c3F)c12 (stereo partly drawn)
b = CCc1c(F)ccc2cc(O)cc(-c3ncc4c(N5CC6CCC(C5)C6CC(=O)N(C)C)nc(OC[C@@]56CCCN5C[C@H](F)C6)nc4c3F)c12 (stereo partly drawn)
c = Cc1cccc2c(-c3ncc4c(N5C[C@@H]6C[C@H](C5)[C@H](O)C6)nc(OC[C@@]56CCCN5C[C@H](F)C6)nc4c3F)cc(O)cc12
Order field: IC50 | Direction: descending (largest first) Answer with the labels in sequence, matching the requested order.
a, c, b
(a: 119 nM, c: 67 nM, b: 13 nM)
